These measurements were taken from the Human Domainome abundance scans (Beltran et al. 2025).

B1: Zinc finger homeobox protein 3, residues 2147 to 2202; numbered along this chain, Q15911 (parent)
chain: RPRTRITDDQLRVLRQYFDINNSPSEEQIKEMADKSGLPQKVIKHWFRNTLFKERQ

Variants of: B1
Experiment: abundance fitness (aPCA) (normalised: wild type 0, dead -1); higher = more abundant; growth selection in yeast, the domain comes from the species named
Details: Homo sapiens
Recorded abundance fitness split into classes bottom end (below -0.2), midrange (-0.2 to below 0.006), top end (0.006 or more)

Reference set (4 entries):
mutation code | label
D34K | top end
S36Y | midrange
Y17E | midrange
R55K | midrange

Enquiry: Which abundance fitness category applies to P2H here?
Return: top end

Enquiry: What do we get for D8R ?
Return: bottom end

Enquiry: What do we get for Q28V ?
Return: midrange

Enquiry: What do we get for Q10T ?
Return: bottom end

Enquiry: What do we get for R3Y ?
Return: midrange

Enquiry: What do we get for E26I ?
Return: top end

Enquiry: What do we get for F18T ?
Return: midrange
